assay: qHTS Validation assay for Inhibitors of Plasmodium falciparum Dd2 growth in vitro; further: nearly all actives have a fitted effect of over 70% in size; settings: P. falciparum Dd2 in RBCs, SYBR Green growth, 72 h; series mostly up to 28.7 µM
Hit rate of the full screen: of about 4,100 compounds, about 1,600 (39%) were called active. Roughly 25% stayed inconclusive and do not appear here. The call rests on the fitted dose curve; in most records, active means well fitted inhibition curve with a large enough effect; inconclusive means small, poorly fitted or top-dose-only effect; inactive means no such curve, though single readings can be large or run the other way. This is one part of the list.
Assign a class; possible classes are 1 (active), 0 (inactive)

compound	cat
CS(=O)(=O)N(C1CC1)C1CCOC2(CCN(C(=O)C3(c4ccccc4)CC3)CC2)C1 (configuration not stated)	0
CC(C)c1ccccc1NC(=O)Cn1cccc1-c1nc(-c2ccc(F)cc2)no1	1
CCN1CCN(c2cc(C)c3cc(NC(=O)c4cc(OC)c(OC)c(OC)c4)ccc3n2)CC1	1
COc1cccc(-c2cc(C(=O)Nc3cc(Cl)ccc3O)on2)c1	1
CCN1CCN(c2cc(C)c3cc(NC(=O)c4cc(OC)cc(OC)c4)ccc3n2)CC1	1
CCCc1nnc([C@H]2CCN(C(=O)c3ccccc3)C2)o1	0
CCOCCc1nnc(NC(=O)C(=O)c2cc(C)n(-c3ccc(C)c(C)c3)c2C)s1	0
Clc1cnccc1CN1CC(CNc2ccccc2)C2(C1)CN(c1ccccc1)C2 (configuration not stated)	1
Fc1ccc(CN2CC[C@H](c3nc4ccc(C(F)(F)F)cc4[nH]3)C2)cc1F	0
CC(C)c1ccccc1NC(=O)CSc1nnc(COc2ccccc2Cl)o1	0

Query: Look up the recorded call for Cc1ccc(Nc2nnc(SCC(=O)c3ccc(O)cc3O)s2)cc1 in this test.
Result: 0

Query: Look up the recorded call for CCN1CCCC(c2nc3ccc(F)cc3c(=O)[nH]2)C1 (configuration not stated) in this test.
Result: 0

Query: Look up the recorded call for CC(C)Cc1cc(CNc2nccc(-c3cc(C(=O)O)ccn3)n2)no1 in this test.
Result: 0

Query: Look up the recorded call for Cc1cc(=O)n2[nH]c(NC(=O)c3cccc(Cl)c3)nc2n1 in this test.
Result: 0

Query: Look up the recorded call for COCC(C)n1c(C)cc(C(=O)CSc2nnc(Nc3ccccc3F)s2)c1C (configuration not stated) in this test.
Result: 1

Query: Look up the recorded call for CCc1cc(=O)n(CC(=O)Nc2ccccc2OC)c(-c2ccccc2)n1 in this test.
Result: 0

Query: Look up the recorded call for O=C(NCC12CCC=C1N(CC1CC1)C(=O)CC2)Nc1cccc(F)c1 (configuration not stated) in this test.
Result: 0

---

assay: qHTS Validation assay for Inhibitors of Plasmodium falciparum Dd2 growth in vitro; further: nearly all actives have a fitted effect of over 70% in size; further: potency means the concentration at half of the fitted maximal effect; conditions: P. falciparum Dd2 in RBCs, SYBR Green growth, 72 h; series mostly up to 28.7 µM
In all, about 4,100 compounds went through this assay and about 1,600 (39%) were called active. About 25% were inconclusive and are not listed. This is one part of the list.
assay.metric: Potency

Use the examples below as a reference point.
molecule	result
CC1(c2ccccc2)N(Cc2ccccc2F)C(=O)OC12CCN(Cc1cccc(O)c1)CC2 (stereo unspecified)	6.68 µM (active)
Cn1c(=O)oc2cc(S(=O)(=O)CCC(=O)N3CCN(c4ccccc4F)CC3)ccc21	inactive
CCOC(=O)c1c(N)sc2c1CCN(Cc1ccccc1)C2	5.31 µM (active)
Cc1ccc2c(c1)c1c3n2CCCN(Cc2ccccc2)C3CCC1 (stereo unspecified)	4.22 µM (active)
COc1ccc(C(=O)Nc2ccc(-c3nc4ncccc4o3)cc2)cc1	inactive
CCCc1noc(-c2ccn3c(CNC(=O)c4ccc(OC)cc4)nnc3c2)n1	inactive

The following molecules each have a reported value; give each one's Potency.
1. COc1cccc(S(=O)(=O)N2C[C@@H](Oc3ccccc3)C[C@@H]2C(=O)N2CCOCC2)c1
2. CNC(=O)[C@H]1C[C@H](Oc2ccccc2)CN1C(=O)CCc1nc2ccccc2[nH]1
3. COc1ccc(C(=O)N2CCC3(CC2)OC(=O)N(Cc2ccc(O)cc2)C3(C)c2ccccc2)cn1 (stereo unspecified)
4. COc1ccc(NC(=O)CCn2ccn3nc4c(c3c2=O)CCCC4)cc1OC
5. COc1ccc(Nc2cc(C)c3cc(NC(=O)c4cc(OC)cc(OC)c4)ccc3n2)cc1
6. CCOC(=O)c1c(NC(=O)/C=C/c2ccc(OCC)cc2)sc2c1CCC2
7. CCOCCOC1CCN(S(=O)(=O)c2c(C)noc2C)CC1

Result:
1: inactive; 2: inactive; 3: 6.68 µM (active); 4: inactive; 5: 0.75 µM (active); 6: inactive; 7: inactive

The following molecules each have a reported value; give each one's Potency.
1. COc1ccccc1Nc1cnc2ccc(-c3ccc(OC)c(OC)c3)nn12
2. COc1cc(OC)c(NC(=O)Cn2c(C)cc3nc4n(c(=O)c32)CCCCC4)cc1Cl
3. COc1cc(C)ccc1OCCSc1nc2ccc(NC(=O)c3ccc(F)cc3)cc2s1
4. COc1ccc(C(=O)N2CCC(c3nc(C4CCOCC4)no3)CC2)cn1

Result:
1: 1.53 µM (active); 2: inactive; 3: 10.6 µM (active); 4: inactive

The following molecules each have a reported value; give each one's Potency.
1. CC1(c2ccccc2)N(Cc2ccccc2)C(=O)OC12CCN(Cc1cccc(O)c1)CC2 (stereo unspecified)
2. Cc1ccc(NC(=O)C2CCN(S(=O)(=O)c3ccc4[nH]c(=O)ccc4c3)CC2)cc1C
3. COc1ccccc1NS(=O)(=O)c1cc(NC(=O)c2cccc(S(=O)(=O)N(C)C)c2)ccc1N1CCOCC1

Result:
8.41 µM (active)
inactive
7.5 µM (active)

Query: // Input: COc1ccc(C(=O)N2CCCn3cc(-c4ccccc4F)nc32)cn1 . Output its Potency only.
Result: inactive
